# system_under_test: ERα (Homo sapiens)
# Sequence (P03372 whole entry): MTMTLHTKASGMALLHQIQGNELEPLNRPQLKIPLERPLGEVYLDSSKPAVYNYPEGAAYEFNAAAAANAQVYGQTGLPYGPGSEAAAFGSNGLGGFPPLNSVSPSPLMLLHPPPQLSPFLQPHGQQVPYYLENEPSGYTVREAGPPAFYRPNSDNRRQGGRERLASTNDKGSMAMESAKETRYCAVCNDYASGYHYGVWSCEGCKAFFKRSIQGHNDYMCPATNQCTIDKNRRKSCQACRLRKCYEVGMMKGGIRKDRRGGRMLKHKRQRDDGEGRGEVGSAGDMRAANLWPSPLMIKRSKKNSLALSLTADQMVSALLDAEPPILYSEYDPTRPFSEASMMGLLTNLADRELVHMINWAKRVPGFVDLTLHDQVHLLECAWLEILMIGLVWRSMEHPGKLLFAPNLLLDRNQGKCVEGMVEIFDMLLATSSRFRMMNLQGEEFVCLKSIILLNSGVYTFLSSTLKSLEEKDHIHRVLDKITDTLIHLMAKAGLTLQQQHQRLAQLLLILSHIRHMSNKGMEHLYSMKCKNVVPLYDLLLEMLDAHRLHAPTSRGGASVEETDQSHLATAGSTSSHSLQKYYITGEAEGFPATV
# method: Degradation of ERα in T-47D cells (immunoblotting, 4 h)
# Type: cell-based
# Parameters: host or cells: T-47D
# condition_info: 1nM compound
observed_property: Degradation rate (%) of ERα in T-47D cells

I: C[C@@H]1C[C@H](N2CCC3(CC2)COc2c3ccc3c2CN(C2CCC(=O)NC2=O)C3=O)CCN1C(=O)C1CCN(c2ccc([C@@H]3c4ccc(O)cc4CC[C@@H]3c3ccccc3)cc2)CC1 (stereo partly drawn)
II: O=C1CCC(N2Cc3c(ccc4c3OCC43CCN(C(=O)C4CCN(c5ccc([C@@H]6c7ccc(O)cc7CC[C@@H]6c6ccccc6)cc5)CC4)CC3)C2=O)C(=O)N1 (stereo partly drawn)
III: O=C1CCC(N2Cc3cc4c(cc3C2=O)CCC2(CN(C3CCC(N5CCN(c6ccc([C@@H]7c8ccc(O)cc8CC[C@@H]7c7ccccc7)cc6)CC5)CC3)C2)O4)C(=O)N1 (stereo partly drawn)
IV: O=C1CCC(N2Cc3c(ccc4c3OCC43CCN(C4CCN(C(=O)C5(F)CCN(c6ccc([C@@H]7c8ccc(O)cc8CC[C@@H]7c7ccccc7)cc6)CC5)CC4)CC3)C2=O)C(=O)N1 (stereo partly drawn)
V: O=C1CCC(N2Cc3ccc4c(c3C2=O)OC2(CC4)CCN(C3CCC4(CC3)CCN(c3ccc([C@@H]5c6ccc(O)cc6CC[C@@H]5c5ccccc5)cc3)CC4)CC2)C(=O)N1 (stereo partly drawn)
Query: Please give the order of these compounds when sorted by Degradation rate (%) of ERα in T-47D cells, largest value leading. Response format: the labels, sorted as the prompt asks.
Reply: I, IV, II, III, V
(I: 62%, IV: 40%, II: 3%, III: -4%, V: -9%)

A: O=C1CCC(N2Cc3c(ccc4c3OCC43CCN(C(=O)C4CCC(CN5CCN(c6ccc(C7c8ccc(O)cc8CCC7c7ccccc7)cc6)CC5)CC4)CC3)C2=O)C(=O)N1 (stereo not drawn) [G16]
B: O=C1CCC(N2Cc3cc4c(cc3C2=O)OC2(CC4)CN(C3CC4(C3)CC3(CCN(c5ccc([C@@H]6c7ccc(O)cc7CC[C@@H]6c6ccccc6)cc5)CC3)C4)C2)C(=O)N1 (stereo partly drawn)
Query: Parameter metric = Degradation rate (%) of ERα in T-47D cells. Return the lower-valued option from A and B . Record your answer as the label of the chosen record.
Reply: B
(B: 23%, A: 68%)

a: O=C1CCC(N2Cc3cc4c(cc3C2=O)CCC2(CN(C(=O)C3CC5(CCN(c6ccc([C@@H]7c8ccc(O)cc8CC[C@@H]7c7ccccc7)cc6)CC5)C3)C2)O4)C(=O)N1 (stereo partly drawn)
b: O=C1CCC(N2Cc3cc4c(cc3C2=O)OC2(CC4)CN(C(=O)CN3CCC4(CCN(c5ccc([C@@H]6c7ccc(O)cc7CC[C@@H]6c6ccccc6)cc5)CC4)C3)C2)C(=O)N1 (stereo partly drawn)
c: CC1(CN2CCC3(CC2)COc2c3ccc3c2CN(C2CCC(=O)NC2=O)C3=O)CCN(CC2CCN(c3ccc([C@@H]4c5ccc(O)cc5CC[C@@H]4c4ccccc4)cc3)CC2)CC1 (stereo partly drawn)
d: O=C1CCC(N2C(=O)c3cc4c(cc3C2=O)C2(CCN(CC3CCC5(CC3)CCN(c3ccc([C@@H]6c7ccc(O)cc7CC[C@@H]6c6ccccc6)cc3)CC5)CC2)CO4)C(=O)N1 (stereo partly drawn)
e: O=C1CCC(N2Cc3c(ccc4c3OCC43CCN([C@H]4CCN(C5CC6(CCN(c7ccc([C@@H]8c9ccc(O)cc9CC[C@@H]8c8ccccc8)cc7)CC6)C5)C[C@H]4F)CC3)C2=O)C(=O)N1 (stereo partly drawn)
Query: rank_up(items): orders items by reported Degradation rate (%) of ERα in T-47D cells in ascending numerical order. Response format: the labels, sorted as the prompt asks.
Reply: a, d, c, e, b

src = patent EP4656642A1
